Could you please report measured Kd for the items listed next?
test system: R1-NB (NB subdomain of Os02g_25900) (Oryza sativa (rice)); assay: EMSA; conditions: apparent Kd; EMSA: 20 mM Tris-HCl pH 8.0, 60 mM NaCl, 2 mM EDTA, 1 mM DTT, 10% glycerol, 0.1 mg/ml BSA, 0.15 nM nucleic acid, 20 min on ice (nucleotide tests + 10 mM ZnCl2 …)

Below: 2 sequences and their reported Kd.
Given the sequence UGGGUCAACGUGGGCAAAGAUGUCCUAGCAAUGUAAUCGUCUAUGACGUU [ssRNA sense strand (50 nt)] , what is its reported Kd?
12.5 µM

Given the sequence TGGGTCAACGTGGGCAAAGATGTCCTAGCAATGTAATCGTCTATGACGTT (double strand) [SS1/SS2 dsDNA (50 bp)] , what is its reported Kd?
2.75 µM

Could you now consider this next sequence?
Given the sequence TGGGTCAACGTGGGCAAAGATGTCCTAGCAATGTAATCGTCTATGACGTT [SS1 ssDNA (50 nt)] , what is its reported Kd?
3.34 µM
